Hi there, I'd appreciate the recorded IC50 for every entry that follows.
- target of assay: FGFR2 (Homo sapiens (Human))
- Sequence (P21802 22-821): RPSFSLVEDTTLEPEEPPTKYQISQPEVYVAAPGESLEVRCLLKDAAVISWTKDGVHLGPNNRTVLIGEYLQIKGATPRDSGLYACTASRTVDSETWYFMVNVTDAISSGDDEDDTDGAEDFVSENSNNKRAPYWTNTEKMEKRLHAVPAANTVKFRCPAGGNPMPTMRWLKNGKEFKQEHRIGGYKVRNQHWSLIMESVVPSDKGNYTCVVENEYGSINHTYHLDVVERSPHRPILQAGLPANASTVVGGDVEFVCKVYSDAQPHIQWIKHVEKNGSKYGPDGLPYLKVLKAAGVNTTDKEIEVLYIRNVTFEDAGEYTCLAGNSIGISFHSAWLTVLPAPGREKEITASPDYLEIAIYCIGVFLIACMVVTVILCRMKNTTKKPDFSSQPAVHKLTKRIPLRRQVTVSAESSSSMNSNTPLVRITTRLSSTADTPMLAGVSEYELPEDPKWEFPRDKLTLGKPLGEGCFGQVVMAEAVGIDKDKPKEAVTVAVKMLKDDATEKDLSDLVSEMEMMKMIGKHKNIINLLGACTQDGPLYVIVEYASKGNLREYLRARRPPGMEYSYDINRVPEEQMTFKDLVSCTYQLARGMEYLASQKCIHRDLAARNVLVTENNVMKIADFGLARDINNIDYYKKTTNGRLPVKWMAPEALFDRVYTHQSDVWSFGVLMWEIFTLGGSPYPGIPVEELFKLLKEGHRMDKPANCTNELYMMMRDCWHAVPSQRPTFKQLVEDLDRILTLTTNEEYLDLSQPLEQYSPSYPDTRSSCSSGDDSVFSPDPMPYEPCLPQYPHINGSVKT
- assay comment: FGFR2 Biochemical Caliper Assay

Q. Looking for the measured IC50 of C=C(C)C(=O)Nc1ccc(-c2c(-c3ccc(Oc4nccc(C)n4)c(F)c3)c3c(N)ncnc3n2C(C)C)cc1 , can you help?
A. < 0.1 µM

Q. What measured IC50 goes with C=CC(=O)Nc1ccc(-c2[nH]c3ncnc(N)c3c2-c2ccc(Oc3cccc(C)n3)cc2)cc1 ?
A. < 0.1 µM

Q. Quick one: IC50 of C=C(C)C(=O)Nc1ccc(-c2c(-c3ccc(C4=NNC(C)O4)nc3)c3c(N)ncnc3n2C)cc1 (stereo not drawn) ?
A. 1 to 100 µM

Q. Query (compound): C=C(C)C(=O)Nc1ccc(-c2c(-c3ccc(C(=O)Nc4ncon4)cc3)c3c(N)ncnc3n2C)cc1 ; field requested: IC50
A. 1 to 100 µM

Q. For C/C=C(\C#N)C(=O)N1CCC(n2cc(-c3c(-c4ccc(Oc5cccc(C)n5)cc4)c4c(N)ncnc4n3C)cn2)CC1 , what is its reported IC50?
A. < 0.1 µM

Q. Which measured IC50 value corresponds to C=CC(=O)N1CCC(c2c(-c3ccc(OCCOC)cc3)c3c(N)ncnc3n2C)C1 (stereo not drawn) ?
A. 1 to 100 µM

Q. Field request: IC50 | item: C=C(C)C(=O)Nc1ccc(-c2c(-c3ccc(S(=O)(=O)NC4CCCC4)cc3)c3c(N)ncnc3n2C)cc1
A. 1 to 100 µM

Q. GET /values?readout=IC50&item= C=C(C)C(=O)Nc1ccc(-c2c(-c3ccc(C(=O)NCc4ccn(C)n4)cc3)c3c(N)ncnc3n2C)cc1
A. 1 to 100 µM

Q. Record request: IC50 value, item C=C(C)C(=O)Nc1ccc(-c2c(-c3ccc(C(=O)N(C)C)nc3)c3c(N)ncnc3n2C)cc1
A. 1 to 100 µM

Q. Which IC50 is listed for C=C(C)C(=O)Nc1ccc(-c2c(-c3ccc(C(=O)NCC#N)cc3)c3c(N)ncnc3n2C)cc1 ?
A. 0.25 to 1 µM

Q. I am curious: what IC50 value has been reported for C=CC(=O)NC1CC=C(c2c(-c3ccc(Oc4cccc(C)n4)c(OC)c3)c3c(N)ncnc3n2C)CC1 (stereo not drawn) ?
A. 0.1 to 0.25 µM

Q. GET /values?readout=IC50&item= C=CC(=O)N1CCC(n2cc(-c3c(-c4ccc(Oc5cccc(C)c5)c(OC)c4)c4c(N)ncnc4n3C)cn2)CC1
A. 0.1 to 0.25 µM

Q. # get_value(readout='IC50', item= C=C(C)C(=O)Nc1ccc(-c2c(-c3ccc(C(=O)N4CCC[C@H]4COC)cc3)c3c(N)ncnc3n2C)cc1 )
A. < 0.1 µM

Q. Query: IC50; subject: C=C(C)C(=O)Nc1ccc(-c2c(-c3ccc(C(=O)NCC4CCC4)c(OC)c3)c3c(N)ncnc3n2C)cc1
A. < 0.1 µM

Q. Record request: IC50 value, item C=C(C)C(=O)Nc1ccc(-c2c(-c3ccc(N(C)C(=O)C4CCCC4)cc3)c3c(N)ncnc3n2C)cc1
A. 1 to 100 µM

Reference source for all entries: patent US11780845B2
